Target: 5-hydroxytryptamine receptors of the sub-type 1 (5-HT1 receptor)
Assay: Affinity to the 5-HT1 receptor: receptor binding studies using calf hippocampus membrane preparations, 3H-serotonin as radioactively labelled ligand
Details: calf hippocampus membranes; 3H-serotonin radioligand
pKi: −log10 of the molar value.
Use 8 as the dividing line for pKi, with the line itself on the T side and lower values as F.

compound="CCCN(CCC)C1CCc2cccc(OCCNC(N)=O)c2C1 (stereo not shown)" class=F
compound="CCCN(CCC)C1CCc2cccc(OCCNC(=O)OCC)c2C1 (stereo not shown)" class=T
compound="CCCN(CCC)C1CCc2cccc(Cl)c2C1 (stereo not shown)" class=F
compound="CCCN(CCC)C1CCc2cccc(O)c2C1 (stereo not shown) [R^1 =OH, R^2 =R^3 =nC3 H7, reference compound]" class=T
compound="CCCN(CCC)C1CCc2cccc(OC)c2C1 (stereo not shown) [R^1 =OCH3, R^2 =R^3 =nC3 H7, reference compound]" class=T
compound="CCCN(CCC)C1CCc2cccc(CCNC(=O)OCc3ccccc3)c2C1 (stereo not shown)" class=T
compound="CCCN(CCC)C1CCc2cccc(OCCNC=O)c2C1 (stereo not shown)" class=F

====

Below, each entry is listed with its recorded Ki.
Target: 5-hydroxytryptamine receptors of the sub-type 1 (5-HT1 receptor)
Test: Affinity to the 5-HT1 receptor: receptor binding studies using calf hippocampus membrane preparations, 3H-serotonin as radioactively labelled ligand
Details: calf hippocampus membranes; 3H-serotonin radioligand
Parameter Measured: Ki (nM)

molecule="CCCN(CCC)C1CCc2cccc(Br)c2C1 (stereo not drawn)" study_system="5-hydroxytryptamine receptors of the sub-type 1 (5-HT1 receptor)" unit_abbrev=nM reading=13
molecule="CCCCS(=O)(=O)NCCOc1cccc2c1CC(N(CCC)CCC)CC2 (stereo not drawn)" study_system="5-hydroxytryptamine receptors of the sub-type 1 (5-HT1 receptor)" unit_abbrev=nM reading=17
molecule="CCCN(CCC)C1CCc2cccc(C(N)=O)c2C1 (stereo not drawn)" study_system="5-hydroxytryptamine receptors of the sub-type 1 (5-HT1 receptor)" unit_abbrev=nM reading=7
